protocol_summary: Solubility, pH of solution and precipitation on pH adjustment or dilution
Assay type: physicochemical
condition_label: dilute hydrochloric acid; mixture of 0.35 ml. of N/2 hydrochloric acid and 0.15 ml. of water; read-out: solubility in dilute hydrochloric acid
endpoint_label: solubility (mg/mL)
Give bare numbers, in mg/mL.

Report solubility for CC(C)=CCN1CC[C@@]2(C)c3cc(O)ccc3C[C@@H]1[C@@H]2C (relative stereo)
100

###

protocol_summary: Solubility, pH of solution and precipitation on pH adjustment or dilution
Type: physicochemical
condition_label: ethanol, organic solvent or mixture; read-out: solubility in ethanol
Where a name gives a salt, the structure may show the parent alone.
Give solubility for every item shown.

# annotated cases, reported solubility shown
Return reported solubility. Input compound: CC(C)=CCN1CC[C@@]2(C)c3cc(O)ccc3C[C@@H]1[C@H]2C (relative stereo) [4E (racemic) hydrobromide]
10 mg/mL

Report solubility, nothing else, for this compound: C=C(C)CN1CC[C@@]2(C)c3cc(O)ccc3C[C@@H]1[C@@H]2C (relative stereo) [8A hydrochloride]
< 10 mg/mL

# ---- query compound ----
Write down solubility measured for item CC[C@]12CCN(CC=C(C)C)[C@H](Cc3ccc(O)cc31)[C@@H]2C (relative stereo)
< 10 mg/mL
